- measurement context: mouse, in vivo, sc, 50 mg/kg
e = 2'-O-(2-methoxyethyl) (MOE); d = 2'-deoxy (DNA)
measured parameter: Platelets
# answer = number (no unit)

{"substance": "ISIS 445505: 5-8-5 or 6-8-6 MOE microwalk gapmer (Table 44) (antisense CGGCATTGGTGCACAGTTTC; sugars from the 5' end e6 d8 e6, backbone and methylation of C not given here)", "reported measurement": 725}
{"substance": "ISIS 445504: 5-8-5 or 6-8-6 MOE microwalk gapmer (Table 44) (antisense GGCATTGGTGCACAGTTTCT; sugars from the 5' end e6 d8 e6, backbone and methylation of C not given here)", "reported measurement": 826}
{"substance": "ISIS 445498: 5-8-5 or 6-8-6 MOE microwalk gapmer (Table 44) (antisense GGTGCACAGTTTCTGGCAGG; sugars from the 5' end e6 d8 e6, backbone and methylation of C not given here)", "reported measurement": 802}

**Q:** Recorded Platelets for ISIS 445503: 5-8-5 or 6-8-6 MOE microwalk gapmer (Table 44) (antisense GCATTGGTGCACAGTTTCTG; sugars from the 5' end e6 d8 e6, backbone and methylation of C not given here) , please?
**A:** 309

**Q:** Recorded Platelets for ISIS 445509: 5-8-5 or 6-8-6 MOE microwalk gapmer (Table 44) (antisense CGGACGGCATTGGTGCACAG; sugars from the 5' end e6 d8 e6, backbone and methylation of C not given here) , please?
**A:** 1085

**Q:** Recorded Platelets for ISIS 445513: 5-8-5 or 6-8-6 MOE microwalk gapmer (Table 44) (antisense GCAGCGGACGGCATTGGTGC; sugars from the 5' end e6 d8 e6, backbone and methylation of C not given here) , please?
**A:** 942

**Q:** Recorded Platelets for ISIS 445530: 5-8-5 or 6-8-6 MOE microwalk gapmer (Table 44) (antisense GCATTGGTGCACAGTTTC; sugars from the 5' end e5 d8 e5, backbone and methylation of C not given here) , please?
**A:** 849

**Q:** Recorded Platelets for ISIS 445532: 5-8-5 or 6-8-6 MOE microwalk gapmer (Table 44) (antisense CGGCATTGGTGCACAGTT; sugars from the 5' end e5 d8 e5, backbone and methylation of C not given here) , please?
**A:** 689
